- Target entity: Carbonic anhydrase 1 (Homo sapiens, UniProt P00915)
- Sequence (P00915 whole entry): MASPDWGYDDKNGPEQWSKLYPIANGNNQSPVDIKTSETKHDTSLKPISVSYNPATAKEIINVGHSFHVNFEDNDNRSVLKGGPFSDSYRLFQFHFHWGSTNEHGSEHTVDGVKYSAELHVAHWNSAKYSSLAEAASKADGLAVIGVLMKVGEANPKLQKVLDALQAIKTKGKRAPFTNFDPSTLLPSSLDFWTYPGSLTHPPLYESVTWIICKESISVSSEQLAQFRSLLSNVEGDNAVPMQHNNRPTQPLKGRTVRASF
- Protocol: Inhibition of recombinant human carbonic anhydrase-1 incubated for 15 mins by stopped-flow CO2 hydrase assay
Each record is given rule met if its reported Ki is strictly below 0.08 µM. Records at or above 0.08 µM are given rule not met.

>>> assigned_class("COc1ccc2cc(C(C)C(=O)NCCc3ccc(S(N)(=O)=O)cc3)ccc2c1 (racemic)")
"rule met"
>>> assigned_class("CC(C(=O)NCCCCOc1ccc(S(N)(=O)=O)cc1)c1cccc(C(=O)c2ccccc2)c1 (racemic)")
"rule met"
>>> assigned_class("CC1=C(CC(=O)NCCCCOc2ccc(S(N)(=O)=O)cc2)c2cc(F)ccc2/C1=C/c1ccc([S+](C)[O-])cc1 (stereo not given)")
"rule not met"
>>> assigned_class("NS(=O)(=O)c1ccc(CCNC(=O)Cc2ccccc2Nc2c(Cl)cccc2Cl)cc1")
"rule met"
>>> assigned_class("NS(=O)(=O)c1ccc(CCNC(=O)C2CCn3c(C(=O)c4ccccc4)ccc32)cc1 (stereo not given)")
"rule not met"
>>> assigned_class("CC(C(=O)NCCCOc1ccc(S(N)(=O)=O)cc1)c1cccc(C(=O)c2ccccc2)c1 (racemic)")
"rule met"
>>> assigned_class("COc1ccc2c(c1)c(CC(=O)NCCc1ccc(S(N)(=O)=O)cc1)c(C)n2C(=O)c1ccc(Cl)cc1")
"rule not met"
>>> assigned_class("CC1=C(CC(=O)NCCc2ccc(S(N)(=O)=O)cc2)c2cc(F)ccc2/C1=C/c1ccc([S+](C)[O-])cc1 (stereo not given)")
"rule met"
>>> assigned_class("NS(=O)(=O)c1ccc(OCCCCNC(=O)Cc2ccccc2Nc2c(Cl)cccc2Cl)cc1")
"rule not met"
>>> assigned_class("CC(C)Cc1ccc(C(C)C(=O)NCCCCOc2ccc(S(N)(=O)=O)cc2)cc1 (racemic)")
"rule met"
>>> assigned_class("CC(C(=O)NCCOc1ccc(S(N)(=O)=O)cc1)c1cccc(C(=O)c2ccccc2)c1 (racemic)")
"rule met"
>>> assigned_class("COc1ccc2c(c1)c(CC(=O)NCCOc1ccc(S(N)(=O)=O)cc1)c(C)n2C(=O)c1ccc(Cl)cc1")
"rule not met"
>>> assigned_class("NS(=O)(=O)c1ccc(NC(=O)Cc2ccccc2Nc2c(Cl)cccc2Cl)cc1")
"rule met"
>>> assigned_class("CC(C(=O)NCCc1ccc(S(N)(=O)=O)cc1)c1ccc(-c2ccccc2)c(F)c1 (racemic)")
"rule met"
>>> assigned_class("CC(C)Cc1ccc(C(C)C(=O)NCCCOc2ccc(S(N)(=O)=O)cc2)cc1 (racemic)")
"rule met"
>>> assigned_class("NS(=O)(=O)c1ccc(NC(=O)C2CCn3c(C(=O)c4ccccc4)ccc32)cc1 (stereo not given)")
"rule met"
>>> assigned_class("CC(C(=O)NCCOc1ccc(S(N)(=O)=O)cc1)c1ccc(-c2ccccc2)c(F)c1 (racemic)")
"rule not met"
>>> assigned_class("CC1=C(CC(=O)NCCOc2ccc(S(N)(=O)=O)cc2)c2cc(F)ccc2/C1=C/c1ccc([S+](C)[O-])cc1 (stereo not given)")
"rule not met"
>>> assigned_class("CC(C(=O)NCCc1ccc(S(N)(=O)=O)cc1)c1cccc(C(=O)c2ccccc2)c1 (racemic)")
"rule met"
>>> assigned_class("CC(C(=O)NCCCOc1ccc(S(N)(=O)=O)cc1)c1ccc(-c2ccccc2)c(F)c1 (racemic)")
"rule met"
>>> assigned_class("CC(C(=O)NCCCCOc1ccc(S(N)(=O)=O)cc1)c1ccc(-c2ccccc2)c(F)c1 (stereo not given)")
"rule not met"
>>> assigned_class("COc1ccc2cc(C(C)C(=O)NCCCCOc3ccc(S(N)(=O)=O)cc3)ccc2c1 (racemic)")
"rule met"
>>> assigned_class("COc1ccc2cc(C(C)C(=O)NCCCOc3ccc(S(N)(=O)=O)cc3)ccc2c1 (racemic)")
"rule met"
>>> assigned_class("COc1ccc2cc(C(C)C(=O)Nc3ccc(S(N)(=O)=O)cc3)ccc2c1 (racemic)")
"rule met"
>>> assigned_class("COc1ccc2c(c1)c(CC(=O)NCCCCOc1ccc(S(N)(=O)=O)cc1)c(C)n2C(=O)c1ccc(Cl)cc1")
"rule not met"
>>> assigned_class("CC(C)Cc1ccc(C(C)C(=O)Nc2ccc(S(N)(=O)=O)cc2)cc1 (racemic)")
"rule met"
>>> assigned_class("CC(C(=O)Nc1ccc(S(N)(=O)=O)cc1)c1ccc(-c2ccccc2)c(F)c1 (racemic)")
"rule met"
>>> assigned_class("CC(C)Cc1ccc(C(C)C(=O)NCCOc2ccc(S(N)(=O)=O)cc2)cc1 (racemic)")
"rule not met"
>>> assigned_class("NS(=O)(=O)c1ccc(OCCCNC(=O)Cc2ccccc2Nc2c(Cl)cccc2Cl)cc1")
"rule met"
>>> assigned_class("CC1=C(CC(=O)Nc2ccc(S(N)(=O)=O)cc2)c2cc(F)ccc2/C1=C/c1ccc([S+](C)[O-])cc1 (stereo not given)")
"rule met"
>>> assigned_class("COc1ccc2cc(C(C)C(=O)NCCOc3ccc(S(N)(=O)=O)cc3)ccc2c1 (racemic)")
"rule met"
>>> assigned_class("CC1=C(CC(=O)NCCCOc2ccc(S(N)(=O)=O)cc2)c2cc(F)ccc2/C1=C/c1ccc([S+](C)[O-])cc1 (stereo not given)")
"rule met"
>>> assigned_class("NS(=O)(=O)c1ccc(OCCNC(=O)Cc2ccccc2Nc2c(Cl)cccc2Cl)cc1")
"rule not met"
